target: IMP-1 (Serratia marcescens, UniProt P52699); test: Enzyme activity: determination of IC50, fluorescence assay with CCF2-FA substrate; format: biochemical; conditions: enzyme 2 pM, CCF2-FA 1.25 μM, 2 hours at 25° C.; read-out: IMP1 IC50
Sequence (P52699 19-246, looked up, species assumed): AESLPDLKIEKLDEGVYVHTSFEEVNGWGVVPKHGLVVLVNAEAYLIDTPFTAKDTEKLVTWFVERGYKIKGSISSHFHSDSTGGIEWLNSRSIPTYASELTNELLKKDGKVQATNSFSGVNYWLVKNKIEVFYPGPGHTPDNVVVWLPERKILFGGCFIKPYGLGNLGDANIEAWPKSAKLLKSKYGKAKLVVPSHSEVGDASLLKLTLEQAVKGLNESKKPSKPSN
MEASUREMENT_LABEL: IC50 (nM)
Give the quantity in nM, number only.

Example results:
CCC[C@H](C(=O)O)[C@H](Cc1ccc(-c2ccc3c(c2)CNCC3)cc1)c1nnn[nH]1: 71
CCCC[C@@H](C(=O)O)[C@@H](Cc1ccc(-c2ccccc2)cc1)c1nn[nH]n1: 140
O=C(O)[C@@H](Cc1ccccc1)[C@H](Cc1ccccc1)c1nnn[nH]1: 550
CC(C)C[C@H](C(=O)O)[C@H](Cc1ccccc1)c1nnn[nH]1: 52
CCC[C@H](C(=O)O)[C@H](Cc1ccc(NC(C)CN)cc1)c1nn[nH]n1 (stereo partly shown): 1700

Q: Entry CCC[C@H](C(=O)O)[C@H](Cc1ccc(-c2cnc(NC(C)=O)nc2)nc1)c1nn[nH]n1 : reported IC50 = ?
Result: 1600

Q: What value of IC50 has been recorded for this entry: CCC[C@H](C(=O)O)[C@H](Cc1ccccc1C#N)c1nnn[nH]1
Result: 1600

Q: What value of measured IC50 is listed for CC(C)C[C@H](C(=O)O)[C@@H](c1nnn[nH]1)[C@H](C)c1ccccc1 ?
Result: 62

Q: Could you tell me which IC50 is on file for CCC[C@H](C(=O)O)[C@H](Cc1ccc(-c2cncc(N3CCN(C)CC3)c2)cc1)c1nn[nH]n1 ?
Result: 610
